# Tested on: Mus musculus
# Protocol Details: Neurotoxicity in CF1 mouse assessed as protection against motor impairment at 300 mg/kg, ip after 0.5 hrs by rotarod test
# Format: functional, organism-based
# Parameters: dose 300 mg/kg
Calls of active or inactive are those of the source. The calls are words filed in the database; no cut-off is given here.
Possible outcomes: active, inactive

{"Molecule": "CCCC(CC(C)C)C(N)=O (configuration not stated)", "Label Class": "active"}
{"Molecule": "CCC(CC(C)C)C(N)=O (configuration not stated)", "Label Class": "active"}
{"Molecule": "CCC(C)C(C(N)=O)C(C)C (configuration not stated)", "Label Class": "active"}
{"Molecule": "CC(C)C(C(=O)NC(N)=O)C(C)C", "Label Class": "active"}
{"Molecule": "CC(C)C(C)C(N)=O (configuration not stated)", "Label Class": "inactive"}
{"Molecule": "CNC(=O)CC(C)(C)C", "Label Class": "inactive"}
{"Molecule": "CCCC(C)C(N)=O (configuration not stated)", "Label Class": "inactive"}
{"Molecule": "CCC(C)C(CC)C(=O)NC(N)=O (configuration not stated) [CAPURIDE]", "Label Class": "active"}
{"Molecule": "CCCC(C(=O)NC)C(C)C (configuration not stated)", "Label Class": "active"}
{"Molecule": "CCC(C)C(N)=O (configuration not stated)", "Label Class": "inactive"}
{"Molecule": "CCCCC(CC)C(=O)NC(N)=O (configuration not stated)", "Label Class": "active"}
{"Molecule": "CC(C)(C)C(N)=O", "Label Class": "inactive"}
{"Molecule": "CCC(CC)C(N)=O", "Label Class": "inactive"}
{"Molecule": "CCCCC(CC)C(=O)NC (configuration not stated)", "Label Class": "active"}
{"Molecule": "CC(C)(C)CC(=O)NC(N)=O", "Label Class": "active"}
{"Molecule": "CCCCC(CC)C(N)=O (configuration not stated)", "Label Class": "active"}
{"Molecule": "CC(C)C(C(N)=O)C(C)(C)C (configuration not stated)", "Label Class": "active"}

----------
# Test system: Mus musculus
# Protocol Details: Antiepileptic activity in CF1 mouse assessed as inhibition of maximal electroshock-induced seizures at 100 mg/kg, ip after 4 hrs
# Assay type: functional, organism-based
# Set-up: dose 100 mg/kg
Active and inactive are the calls of the source. No cut-off for these calls is given here.
Readout: Activity

{"Molecule": "CCC(C)C(CC)C(=O)NC(N)=O (stereo not given) [CAPURIDE]", "Result": "inactive"}
{"Molecule": "CC(C)(C)C(N)=O", "Result": "inactive"}
{"Molecule": "CCC(C(N)=O)C(C)C (stereo not given)", "Result": "inactive"}
{"Molecule": "CCCC(CC)C(N)=O (stereo not given)", "Result": "inactive"}
{"Molecule": "CCCC(C(=O)NC(N)=O)C(C)C (stereo not given)", "Result": "inactive"}
{"Molecule": "CCC(CC(C)C)C(N)=O (stereo not given)", "Result": "inactive"}
{"Molecule": "CCC(C)C(CC)C(=O)NC (stereo not given)", "Result": "inactive"}
{"Molecule": "CCC(C)C(C(N)=O)C(C)C (stereo not given)", "Result": "inactive"}
{"Molecule": "CCCC(C)C(N)=O (stereo not given)", "Result": "inactive"}
{"Molecule": "CC(C)C(C)C(N)=O (stereo not given)", "Result": "inactive"}
